Each item that follows carries a reported growth.
# Tested on: A549/ATCC NSCLC
# experimental.details: NCI-60 one-dose screen, 48 h (100 = growth as untreated, 0 = no growth, -100 = all killed)
# cond: 10 µM
# Experimental: Growth inhibition of the A549/ATCC human Non-Small Cell Lung tumor cell line is measured as a screen for anti-cancer activity. Cells are grown in 96 well plates and exposed to the test compound for 48 hours. Compounds are tested at a single concentration, which is 10^-5 M for most compounds. The reported endpoint is percent growth (GI% or GIPRCNT), where numbers from 0 - 100% represent growth inhibition, and numbers from -100% - 0 represent cell death. […]
This is part of a sample that, as a whole, favours compounds with a hit. Of some 83,000 tested, about 20% had one in any assay.
reported.property: growth (%)

> print(dat)
                                    molecule  reported.result
 1  COc1cc(-c2cc(/C=C3\C(=O)Nc4ccc(Cl)cc43)[nH]n2)cc(OC)c1OC             40.4
 2  N#Cc1c(C#N)c(SSc2c(C#N)c(C#N)c(N)n2-c2ccccc2)n(-c2ccccc2)c1N              112
 3     CN(Cc1ccccc1)Cc1ccc([N+](=O)[O-])cc1I             93.6
 4          CCN(CC)CCNC(=O)c1ccc(NC(C)=O)cc1             98.5
 5  CN(C)c1ccc(/C=C/C=N/NC(=O)c2cc(O)c(O)c(O)c2)cc1               98
 6  CCOC(=O)N1C/C(=C/c2ccc(OC)cc2)C(=O)/C(=C/c2ccc(OC)cc2)C1             21.4
 7                 O=C1Nc2ccccc2C1=NC1CCCCC1              103
 8  Cc1cccc(C)c1NC(=O)c1sc2nc3c(cc2c1N)C(=O)CCC3             35.6
 9  O=c1oc2cc(OS(=O)(=O)c3ccccc3)ccc2c2c1CCCCC2             34.7
10       CCCCCCCC(C)NCCO (centres undefined)             93.5
11     CCn1cc(C(=O)O)c(=O)c2cnc(N3CCCC3)nc21             96.1
12      CN(C)c1ccc(N=C2C=CC(=O)c3ccccc32)cc1               28
13  COc1ccc(/C=C2/CN(CCC#N)C/C(=C\c3ccc(OC)cc3)C2=O)cc1            -4.55
14  O=C(CC(NC(=O)OCc1ccccc1)C(=O)OCc1ccccc1)OCc1ccccc1 (centres undefined)             99.3
15  O=S(=O)(NCCNc1nccc(-c2c(-c3ccc(F)cc3)nc3sccn23)n1)c1ccc2ccccc2c1             43.8
16  CC1(C)OC2=C(CC1Br)C(=O)C(=O)c1ccccc12 (centres undefined)            -39.9
17          Cc1cc(C)c(CCc2cc(C)c(C)cc2C)cc1C             99.9
18                    CN(CCc1ccccn1)c1ccccc1             99.7
19  Clc1ccc(Nc2ccnc(NCCNc3ccnc4cc(Cl)ccc34)n2)cc1             10.8
20  Cn1c(C(N)=O)cc2c1-c1nc(Nc3ccccc3)ncc1CCC2             31.1
21  O=C1OCC2=C1C(c1cccc(Br)c1)c1cc3c(cc1N2CCO)CCC3 (centres undefined)             12.5
22  COc1ccc2c(c1)[n+]([O-])c(C#N)c(NC(=O)c1ccco1)[n+]2[O-]              111
23  COc1ccc(-c2cc(-c3ccc(N(C)C)cc3)c(C#N)c(N3CCCC3)n2)cc1             77.2
24  CN(C)c1ccc(-c2cc(-c3cccc(NS(C)(=O)=O)c3)nc(N)c2C#N)cc1             25.9
25  COc1ccc2c(c1)N(CCO)C1=C(C(=O)OC1)C2c1ccccc1 (centres undefined)             46.6
26               C[N+](C)(C)c1ncnc2nc[nH]c12              108
27  COc1cc(Cl)cc(-c2nn(-c3cccc(NC(=O)Nc4cc(C(F)(F)F)cc(C(F)(F)F)c4)c3)cc2-c2ccncc2)c1             5.14
28  O=C1C(=O)c2ccccc2C(O)=C1CCCc1ccc(C2CCCCCC2)cc1             22.7
29               N#Cc1cc(-c2cc3ccccc3o2)oc1N            -5.69
30  CCN1CCC(CCOC)(CN2c3ccccc3Sc3ccc(Cl)cc32)C1 (centres undefined)             61.1
31  COc1ccc(-c2cc(/C=C3\C(=O)Nc4ccc(Cl)cc43)[nH]n2)cc1OC             89.5
32  CC(=O)N(C)c1ccc(Nc2ccc(Nc3ccc(N(C)C(C)=O)cc3)c3c2C(=O)c2ccccc2C3=O)cc1             63.5
33  COc1ccc(Nc2cc(C)nc(NCCCNc3ccnc4cc(Cl)ccc34)n2)cc1            -44.7
34  COc1cccc(NC(=O)c2sc3nc4c(cc3c2N)C(O)CCC4)c1 (centres undefined)             22.3
35  COc1ccc(Nc2nc3ccc(NC(=O)NC4CCCCC4)cc3[nH]c2=O)cc1             89.5
36  CC(C)=CCc1cc(O)cc2c1OC(C=C(C)C)C1=C2C(=O)C2=C(C1=O)S(=O)(=O)CCN2 (centres undefined)             70.1
37  Cc1ccc(NC(=O)CSc2nc3ccccc3c(=O)n2CCc2ccccc2)c(C(=O)O)c1               98
38  COc1ccc(-c2nn(-c3cccc(NC(=O)c4ccc(Cl)c(Cl)c4)c3)cc2-c2ccncc2)cc1Cl               70
39  COc1cc(-c2nc(-c3nnc(-c4ccc(F)c(Cl)c4)o3)c3ccccn23)cc(OC)c1OC             23.7
